target: Smoothened (Mus musculus) (UniProt P56726); experiment: Inhibition of Smo-mediated Hh signaling in mouse Shh-light2 cells at 0.3 uM by luciferase reporter gene assay; details: Shh Light II
Sequence (P56726 whole entry, looked up): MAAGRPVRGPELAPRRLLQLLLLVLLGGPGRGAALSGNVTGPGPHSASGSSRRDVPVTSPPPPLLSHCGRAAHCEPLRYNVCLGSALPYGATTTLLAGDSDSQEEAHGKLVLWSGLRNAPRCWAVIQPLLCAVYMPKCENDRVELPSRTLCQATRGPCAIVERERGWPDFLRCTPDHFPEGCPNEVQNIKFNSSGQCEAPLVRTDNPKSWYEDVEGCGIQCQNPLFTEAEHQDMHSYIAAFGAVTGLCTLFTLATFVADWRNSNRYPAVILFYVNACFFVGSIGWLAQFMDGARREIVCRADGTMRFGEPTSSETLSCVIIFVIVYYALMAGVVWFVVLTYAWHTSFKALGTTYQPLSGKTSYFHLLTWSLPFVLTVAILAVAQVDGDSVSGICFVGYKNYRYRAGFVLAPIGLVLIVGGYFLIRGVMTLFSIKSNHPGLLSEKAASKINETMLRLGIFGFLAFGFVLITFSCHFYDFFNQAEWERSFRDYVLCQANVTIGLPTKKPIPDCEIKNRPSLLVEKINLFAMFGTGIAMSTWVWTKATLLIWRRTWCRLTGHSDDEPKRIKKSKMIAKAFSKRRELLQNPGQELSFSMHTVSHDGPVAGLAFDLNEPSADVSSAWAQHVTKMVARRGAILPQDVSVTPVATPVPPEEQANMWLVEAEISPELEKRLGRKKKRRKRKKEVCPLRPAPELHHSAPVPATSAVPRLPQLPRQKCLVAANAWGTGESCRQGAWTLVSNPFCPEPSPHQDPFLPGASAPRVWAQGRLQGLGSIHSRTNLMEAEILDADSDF
measurement.type: inhibition (%)
Note: unit % is implicit; provide only the numeric part.

Below are worked cases with known answers.
[
  {
    "cpd.smiles": "COc1cc(C(=O)NC(=O)Nc2cccc(NC(=O)c3ccc(-c4ccccc4)cc3)c2C)cc(OC)c1OC",
    "tgt": "Smoothened (Mus musculus) (UniProt P56726)",
    "value.measured": 26
  },
  {
    "cpd.smiles": "COc1ccc(NC(=S)NC(=O)c2cc(OC)c(OC)c(OC)c2)cc1NC(=O)c1ccccc1",
    "tgt": "Smoothened (Mus musculus) (UniProt P56726)",
    "value.measured": 1
  },
  {
    "cpd.smiles": "COc1cc(C(=O)NC(=O)Nc2cccc(NC(=O)c3ccccc3)c2)cc(OC)c1OC",
    "tgt": "Smoothened (Mus musculus) (UniProt P56726)",
    "value.measured": 76
  },
  {
    "cpd.smiles": "COc1cc(C(=O)NC(=O)Nc2ccc(C)c(NC(=O)c3ccc(-c4ccccc4)cc3)c2)cc(OC)c1OC",
    "tgt": "Smoothened (Mus musculus) (UniProt P56726)",
    "value.measured": 96
  },
  {
    "cpd.smiles": "COc1cc(C(=O)NC(=O)Nc2cccc(NC(=O)c3ccc4ccccc4c3)c2)cc(OC)c1OC",
    "tgt": "Smoothened (Mus musculus) (UniProt P56726)",
    "value.measured": 1
  },
  {
    "cpd.smiles": "COc1cc(C(=O)NC(=S)Nc2ccc(C)c(NC(=O)c3ccccc3)c2)cc(OC)c1OC",
    "tgt": "Smoothened (Mus musculus) (UniProt P56726)",
    "value.measured": 60
  },
  {
    "cpd.smiles": "COc1cc(C(=O)NC(=S)Nc2ccc(Cl)c(C(=O)Nc3ccc(Cl)cc3)c2)cc(OC)c1OC",
    "tgt": "Smoothened (Mus musculus) (UniProt P56726)",
    "value.measured": 7
  },
  {
    "cpd.smiles": "COc1cc(C(=O)NC(=S)Nc2ccc(C)c(NC(=O)c3ccc(Oc4ccccc4)cc3)c2)cc(OC)c1OC",
    "tgt": "Smoothened (Mus musculus) (UniProt P56726)",
    "value.measured": 59
  }
]

Inquiry: For the compound shown here, COc1cc(C(=O)NC(=O)Nc2cccc(NC(=O)C(C)C)c2)cc(OC)c1OC , give the reported inhibition.
Reply text: 4

Inquiry: Also check COc1cc(C(=O)NC(=S)Nc2ccc(C)c(NC(=O)c3ccc(-c4ccc(F)cc4)cc3)c2)cc(OC)c1OC
Reply text: 96

Inquiry: Record: COc1cc(C(=O)NC(=S)Nc2cc(NC(=O)c3ccccc3)ccc2F)cc(OC)c1OC
Reply text: 4

Inquiry: Another compound to look at: COc1cc(C(=O)NC(=S)Nc2cccc(NC(=O)c3ccccc3)c2)cc(OC)c1OC
Reply text: 15

Inquiry: What would you report for COc1ccc(NC(=O)c2cc(NC(=S)NC(=O)c3cc(OC)c(OC)c(OC)c3)ccc2Cl)cc1 ?
Reply text: 10

Inquiry: Then this compound: CCOc1cc(C(=O)NC(=O)Nc2cccc(NC(=O)c3ccccc3)c2)cc(OCC)c1OCC
Reply text: 13

Inquiry: Can you check COc1cc(C(=O)NC(=S)Nc2ccc(C)c(NC(=O)c3ccc(-c4ccccc4)cc3)c2)cc(OC)c1OC next?
Reply text: 98

Inquiry: Cool, now COc1cc(C(=O)NC(=S)Nc2cccc(NC(=O)c3ccccc3)c2C)cc(OC)c1OC
Reply text: 2

Inquiry: Field entry: COc1cc(C(=O)NC(=O)Nc2cccc(NC(=O)c3ccccc3)c2)cc2c1OCO2
Reply text: 1

Inquiry: Entry COc1cc(C(=O)NC(=S)Nc2ccc(F)c(NC(=O)c3ccccc3)c2)cc(OC)c1OC please
Reply text: 21

Measured values drawn from ChEMBL document CHEMBL2029339 for this set.
